Tested on: B16-F10
Assay: Cytotoxicity against mouse melanoma B16F10 cell line
Type: functional

[
  {
    "smiles-input": "CO[C@H]1[C@H](OC(C)=O)C2=C(C)[C@@H](OC(=O)[C@H](O)[C@@H](NC(=O)OC(C)(C)C)c3ccccc3)C[C@@](O)([C@@H](OC(=O)c3ccccc3)[C@@H]3[C@]4(OC(C)=O)CO[C@@H]4C[C@H](O)[C@]31C)C2(C)C",
    "Cytotoxicity / ng/mL": 0.9
  },
  {
    "smiles-input": "CCN(CC)CCO[C@H]1C[C@H]2OC[C@@]2(OC(C)=O)[C@H]2[C@H](OC(=O)c3ccccc3)[C@]3(O)C[C@H](OC(=O)[C@H](O)[C@@H](NC(=O)c4ccccc4)c4ccccc4)C(C)=C([C@@H](OC(C)=O)[C@H](O)[C@]12C)C3(C)C",
    "Cytotoxicity / ng/mL": 110
  },
  {
    "smiles-input": "CC(=O)O[C@@H]1C2=C(C)[C@@H](OC(=O)[C@H](O)[C@@H](NC(=O)c3ccccc3)c3ccccc3)C[C@@](O)([C@@H](OC(=O)c3ccccc3)[C@@H]3[C@]4(OC(C)=O)CO[C@@H]4C[C@H](OC(C)=O)[C@@]3(C)[C@H]1OC(C)=O)C2(C)C",
    "Cytotoxicity / ng/mL": 13
  },
  {
    "smiles-input": "CC(=O)O[C@@H]1C2=C(C)[C@@H](OC(=O)[C@H](O)[C@@H](NC(=O)c3ccccc3)c3ccccc3)C[C@@](O)([C@@H](OC(=O)c3ccccc3)[C@@H]3[C@]4(OC(C)=O)CO[C@@H]4C[C@@H]4OC(=S)O[C@@H]1[C@]43C)C2(C)C",
    "Cytotoxicity / ng/mL": 20
  }
]

* * *

Tested on: A549
Assay: Cytotoxicity against human lung carcinoma A549 cell line
Format: functional
parameter-measured: Cytotoxicity

[
  {
    "molecule": "CC(=O)O[C@@H]1C2=C(C)[C@@H](OC(=O)[C@H](O)[C@@H](NC(=O)c3ccccc3)c3ccccc3)C[C@@](O)([C@@H](OC(=O)c3ccccc3)[C@@H]3[C@]4(OC(C)=O)CO[C@@H]4C[C@H](O)[C@@]3(C)[C@H]1O)C2(C)C (stereo in doubt; 2)",
    "target-or-system": "A549",
    "test-value": "22 ng/mL"
  },
  {
    "molecule": "CC(=O)O[C@@H]1C2=C(C)[C@@H](OC(=O)[C@H](O)[C@@H](NC(=O)c3ccccc3)c3ccccc3)C[C@@](O)([C@@H](OC(=O)c3ccccc3)[C@@H]3[C@]4(OC(C)=O)CO[C@@H]4C[C@H](OCC(O)CO)[C@@]3(C)[C@H]1O)C2(C)C (some centres not stated)",
    "target-or-system": "A549",
    "test-value": "626 ng/mL"
  }
]

* * *

Assay: ED50 compared to that of taxol.
Format: functional

[
  {
    "compound": "CC(=O)O[C@@H]1C2=C(C)[C@@H](OC(=O)[C@H](O)[C@@H](NC(=O)c3ccccc3)c3ccccc3)C[C@@](O)([C@@H](OC(=O)c3ccccc3)[C@@H]3[C@]4(OC(C)=O)CO[C@@H]4C[C@H](O)[C@@]3(C)[C@H]1O)C2(C)C (stereo in doubt; 14a)",
    "Ratio": 0.83
  },
  {
    "compound": "CC(=O)O[C@@]12CO[C@@H]1C[C@H](O)[C@]1(C)[C@@H]2[C@H](OC(=O)c2ccccc2)[C@]2(O)C[C@H](OC(=O)[C@H](O)[C@@H](NC(=O)OC(C)(C)C)c3ccccc3)C(C)=C([C@@H](O)[C@@H]1O)C2(C)C",
    "Ratio": 1.31
  },
  {
    "compound": "CC(=O)O[C@H]1C(=O)[C@@]2(C)[C@H]([C@H](OC(=O)c3ccccc3)[C@]3(O)C[C@H](OC(=O)[C@H](O)[C@@H](NC(=O)c4ccccc4)c4ccccc4)C(C)=C1C3(C)C)[C@]1(OC(C)=O)CO[C@@H]1C[C@@H]2O",
    "Ratio": 1
  },
  {
    "compound": "CO[C@H]1C[C@H]2OC[C@@]2(OC(C)=O)[C@H]2[C@H](OC(=O)c3ccccc3)[C@]3(O)C[C@H](OC(=O)[C@H](O)[C@@H](NC(=O)OC(C)(C)C)c4ccccc4)C(C)=C([C@@H](OC(C)=O)[C@H](O)[C@]12C)C3(C)C",
    "Ratio": 0.35
  }
]

* * *

System: P388
Experiment: Cytotoxicity against mouse lymphocytic leukemia P388 cell line
Type: functional
I'd appreciate it if you marked entries Y when Cytotoxicity is lower than 40 ng/mL and N when it is not.

[
  {
    "smiles-input": "C=CCO[C@H]1C[C@H]2OC[C@@]2(OC(C)=O)[C@H]2[C@H](OC(=O)c3ccccc3)[C@]3(O)C[C@H](OC(=O)[C@H](O)[C@@H](NC(=O)c4ccccc4)c4ccccc4)C(C)=C([C@@H](OC(C)=O)[C@H](O)[C@]12C)C3(C)C",
    "assigned-label": "Y"
  },
  {
    "smiles-input": "CO[C@H]1[C@H](OC(C)=O)C2=C(C)[C@@H](OC(=O)[C@H](O)[C@@H](NC(=O)OC(C)(C)C)c3ccccc3)C[C@@](O)([C@@H](OC(=O)c3ccccc3)[C@@H]3[C@]4(OC(C)=O)CO[C@@H]4C[C@H](O)[C@]31C)C2(C)C",
    "assigned-label": "Y"
  },
  {
    "smiles-input": "CC(=O)OCCO[C@H]1C[C@H]2OC[C@@]2(OC(C)=O)[C@H]2[C@H](OC(=O)c3ccccc3)[C@]3(O)C[C@H](OC(=O)[C@H](O)[C@@H](NC(=O)c4ccccc4)c4ccccc4)C(C)=C([C@@H](OC(C)=O)[C@H](O)[C@]12C)C3(C)C",
    "assigned-label": "N"
  },
  {
    "smiles-input": "CC(=O)O[C@@H]1C2=C(C)[C@@H](OC(=O)[C@H](O)[C@@H](NC(=O)c3ccccc3)c3ccccc3)C[C@@](O)([C@@H](OC(=O)c3ccccc3)[C@@H]3[C@]4(OC(C)=O)CO[C@@H]4C[C@H](OCCO)[C@@]3(C)[C@H]1O)C2(C)C",
    "assigned-label": "N"
  },
  {
    "smiles-input": "CC(=O)O[C@@]12CO[C@@H]1C[C@H](O)[C@]1(C)[C@@H]2[C@H](OC(=O)c2ccccc2)[C@]2(O)C[C@H](OC(=O)[C@H](O)[C@@H](NC(=O)OC(C)(C)C)c3ccccc3)C(C)=C([C@@H](O)[C@@H]1O)C2(C)C",
    "assigned-label": "Y"
  },
  {
    "smiles-input": "CC(=O)O[C@@H]1C2=C(C)[C@@H](OC(=O)[C@H](O)[C@@H](NC(=O)c3ccccc3)c3ccccc3)C[C@@](O)([C@@H](OC(=O)c3ccccc3)[C@@H]3[C@]4(OC(C)=O)CO[C@@H]4C[C@@H]4OC(=S)O[C@@H]1[C@]43C)C2(C)C",
    "assigned-label": "Y"
  }
]

The origin of these recorded values is ChEMBL document CHEMBL1128309.
